- System: DU145 cells
- Test Details: MTS viable cell assay, DU145 (Epistem)
- Assay type: cell-based, human
- Recorded Conditions: DU145; 150 μM (highest concentration); 72h
# key: entry, value: Test mean OD vs control mean

Below, each entry is followed by its recorded Test mean OD vs control mean result.
| Substance | Test mean OD vs control mean |
| --- | --- |
| MKPLTGKVKEFNNI [EPL001, 14mer master test peptide …; ovine provenance] | −16.5% |
| MKPVFN [EPL601] | −14.3% |
| MLKTGEKPVFKNNI [EPL143, Contiguous form of sSgII-14, an anagram of EPL001; benchmark for chi-squared test] | −18.7% |

In the following, a different substance is considered.
Provide the documented Test mean OD vs control mean with DU145 cells as the system for MKPNFN [EPL600] −16.9%

----------
- Test system: PNT2 cells
- Test Details: MTS colorimetric viable cell assay, PNT2
- Assay type: cell-based, human
- Recorded Conditions: 30 μM, 27h, 492 nm, triplicate
# key: entry, value: Difference in percentage terms between control and test OD means
Reply with just the number (in %).

Below, each entry is followed by its recorded Difference in percentage terms between control and test OD means result.
| Substance | Numeric Readout |
| --- | --- |
| MKPVFN [EPL601] | −33.2 |
| MKPNFN [EPL600] | −39.7 |
| MLKTGEKPV [EPL901, first 9 aa of EPL143, from sSgII’s second sorting domain] | −28.9 |
| MLKTGEKPVFKNNI [EPL143, Contiguous form of sSgII-14, an anagram of EPL001; benchmark for chi-squared test] | −20.6 |

In the following, a different substance is considered.
// lookup Difference in percentage terms between control and test OD means for MLKTGEKPNFKNNI [EPL141, Human version of EPL143, with sheep V replaced by human N9] −27.9

----------
# key: entry, value: Reduction in test mean OD versus the vehicle control mean
- Tested on: LNCaP cells
- Test Details: MTS viable cell assay, LNCaP (Epistem)
- Assay type: cell-based, human
- Recorded Conditions: over 72h, single dose level
Hi, when you answer, please include the unit after the number. Thanks!

| Substance | Result |
| --- | --- |
| MKPLTGKVKEFNNI [EPL001, 14mer master test peptide …; ovine provenance] | -17.0% |
| MKPVFN [EPL601] | −16.0% |
| AAAAAGKVKEFNNI [EPL590, Substituted EPL001; alanines 1–5] | −21.4% |

// lookup Reduction in test mean OD versus the vehicle control mean for MKPNFN [EPL600] −35.1%

Origin of the recorded values: paper PMC9714824
